# targetOrTestSystem: GABA-A receptor; anion channel
# experimentNotes: In vitro affinity for BZD site on GABA-A receptor from rat cerebral cortex using radioligand [3H]flunitrazepam
recordedMetric: pIC50
Keep it numeric: pIC50 is minus log10 of the concentration in mol/L.

Summary for this compound, CN(C)CCCN1C2=C(C(=O)Nc3ccccc3F)C(=O)CCN2c2ccc(F)cc21 : pIC50 is 8.48

Summary for this compound, CCOCN1C2=C(C(=O)Nc3cccs3)C(=O)CCN2c2ccc(F)cc21 : pIC50 is 9.00

Summary for this compound, CCOCN1C2=C(C(=O)Nc3ccccc3F)C(=O)CCN2c2cc(F)cc(F)c21 : pIC50 is 7.88

Summary for this compound, CCOCN1C2=C(C(=O)Nc3sccc3Cl)C(=O)CCN2c2ccc(F)cc21 : pIC50 is 9.15

Summary for this compound, CCOCN1C2=C(C(=O)Nc3ccccc3F)C(=O)CCN2c2ccc(F)cc21 : pIC50 is 10.00
